Reference source: paper PMC8119466

For each entry below, report its % Phosphatase Activity (compared to DMSO) PRL-2 value.
molecular target: recombinant PRL-2 (Homo sapiens, UniProt Q12974); construct: 6xHis (N, cleaved yes); made in house; host or cells: E. coli One Shot BL21 Star; assay: In vitro phosphatase assay (DiFMUP hydrolysis), PRL-2; assay type: biochemical; conditions: FDA-approved drug screen; compared to DMSO;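 also: PRL-2 activity read as DiFMUP hydrolysis after 20 min at room temperature with drug, enzyme first pre-reduced at 4 °C for 20 min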
Sequence (Q12974 whole entry): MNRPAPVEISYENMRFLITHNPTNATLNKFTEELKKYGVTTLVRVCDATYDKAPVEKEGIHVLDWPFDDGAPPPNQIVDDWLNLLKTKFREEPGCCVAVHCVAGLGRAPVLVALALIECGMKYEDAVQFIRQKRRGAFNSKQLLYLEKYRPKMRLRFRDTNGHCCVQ
Where a name gives a salt, the structure may show the parent alone.
Numbers only, in %.

Below, 8 compounds whose answers are already recorded.
{"compound": "NC(=O)CCC(N)C(=O)O (stereo in doubt) [D-glutamine]", "measured-number": 80}
{"compound": "N=C(N)NC(=O)c1nc(Cl)c(N)nc1N [Amiloride hydrochloride dihydrate]", "measured-number": 219}
{"compound": "O=c1oc2c(O)c(O)cc3c(=O)oc4c(O)c(O)cc1c4c23 [Ellagic acid]", "measured-number": 89}
{"compound": "C[C@@H](O[C@H]1OCCN(Cc2n[nH]c(=O)[nH]2)[C@H]1c1ccc(F)cc1)c1cc(C(F)(F)F)cc(C(F)(F)F)c1 [Aprepitant]", "measured-number": 94}
{"compound": "C[C@]12CC[C@@H]3c4ccc(O)cc4CC[C@H]3[C@@H]1CC[C@@H]2OC(=O)CCC1CCCC1 [Estradiol Cypionate]", "measured-number": 109}
{"compound": "CC(C)(C)NCC(O)COc1cccc2c1CCC(=O)N2 (centres unmarked) [Carteolol HCl]", "measured-number": 87}
{"compound": "N[C@@H]1CON=C1O [D-Cycloserine]", "measured-number": 101}
{"compound": "O=C(O)c1nn(Cc2ccc(Cl)cc2Cl)c2ccccc12 [Lonidamine]", "measured-number": 106}

Give measured % Phosphatase Activity (compared to DMSO) PRL-2 for every item shown.
1. Cl.O=S(=O)(c1cccc2cnccc12)N1CCCNCC1 [Fasudil (HA-1077) HCl]
2. COC(=O)C1=C(C)NC(C)=C(C(=O)OCCN2CCN(C(c3ccccc3)c3ccccc3)CC2)C1c1cccc([N+](=O)[O-])c1.Cl.Cl (centres unmarked) [Manidipine 2HCl]
3. Cl.NCCS [Cysteamine HCl]
4. Cn1c([N+](=O)[O-])cnc1COC(N)=O [Ronidazole]

### Response
95
87
79
95
